- Tested on: MIA PaCa-2 cells
- Measurement protocol: Gemcitabine Combination Cell Assay (Cell Titer Glo)
- Type: cell-based
- Experimental parameters: approximate concentration of Chk1 inhibitor that results in a two-fold reduction in the IC50 of gemcitabine alone, MIA PaCa-2 cells, 72 h
Where a name gives a salt, the structure may show the parent alone.
Outcome measure: 2xLS

Please review the following examples before continuing.
COc1cc(NCC2CCN(C(C)C)CC2)ccc1-c1cc(Nc2cnc(C#N)cn2)n[nH]1 [Example 109] | <3 nM
COc1cc(OC2CCN(C)CC2)ccc1-c1cc(Nc2cnc(C#N)cn2)n[nH]1 [Example 28, hydrochloride] | <3 nM
CCN1CCC[C@@H]1Cc1ccc(-c2cc(Nc3cnc(C#N)cn3)n[nH]2)c(OC)c1 [Example 149, hydrochloride] | <3 nM
CCN1CC[C@@H](OCc2ccc(-c3cc(Nc4cnc(C#N)cn4)n[nH]3)c(OC)c2)C1 [Example 140, hydrochloride] | <10 nM
COc1cc(C2CCCNC2)ccc1-c1cc(Nc2cnc(C#N)cn2)n[nH]1 (stereo not drawn) [Example 39] | <3 nM

Ask | Given COc1cc(CNC2CCOCC2)ccc1-c1cc(Nc2cnc(C#N)cn2)n[nH]1 [Example 14, hydrochloride] , state its recorded 2xLS.
Reply | <3 nM

Ask | Given COc1cc(CN[C@H](C)CN2CCOCC2)ccc1-c1cc(Nc2cnc(C#N)cn2)n[nH]1 [Example 18] , state its recorded 2xLS.
Reply | ~5 nM

Ask | Given COC(=O)c1cnc(Nc2cc(-c3ccc(C4CCNCC4)cc3OC)[nH]n2)cn1 [Example 71] , state its recorded 2xLS.
Reply | >3000 nM

Ask | Given COc1cc(O[C@@H]2CCN(C(C)C)C2)ccc1-c1cc(Nc2cnc(C#N)cn2)n[nH]1 [Example 95] , state its recorded 2xLS.
Reply | <3 nM
